Entries and their measured protein melting temperature follow.
System: McpC ligand-binding domain (Salmonella Typhimurium SL1344)
Experiment: protein melting temperature (Tm) in presence of compound (degrees C); higher = more thermal stabilisation (possible ligand binding)
Conditions: Biolog plate: PM03B; compound stock concentration: 10-20 mM, 2 uL in 10 uL reaction
property: protein melting temperature

{"compound": "NC(=O)NC1NC(=O)NC1=O (configuration not stated) [Allantoin]", "experimental-target": "McpC ligand-binding domain (Salmonella Typhimurium SL1344)", "property": "protein melting temperature", "observed": 44.2}
{"compound": "NC(=O)C[C@H](N)C(=O)O [L-Asparagine]", "experimental-target": "McpC ligand-binding domain (Salmonella Typhimurium SL1344)", "property": "protein melting temperature", "observed": 45.7}
{"compound": "N[C@@H](CCO)C(=O)O [L-Homoserine]", "experimental-target": "McpC ligand-binding domain (Salmonella Typhimurium SL1344)", "property": "protein melting temperature", "observed": 44.8}
{"compound": "NCCc1ccc(O)cc1 [Tyramine]", "experimental-target": "McpC ligand-binding domain (Salmonella Typhimurium SL1344)", "property": "protein melting temperature", "observed": 44.8}
{"compound": "NCCCCN=C(N)N [Agmatine]", "experimental-target": "McpC ligand-binding domain (Salmonella Typhimurium SL1344)", "property": "protein melting temperature", "observed": 44.1}
{"compound": "CSCC[C@H](N)C(=O)N[C@@H](C)C(=O)O [Met-Ala]", "experimental-target": "McpC ligand-binding domain (Salmonella Typhimurium SL1344)", "property": "protein melting temperature", "observed": 44.9}
{"compound": "O=C1NC(=O)C(=O)N1 [Parabanic acid]", "experimental-target": "McpC ligand-binding domain (Salmonella Typhimurium SL1344)", "property": "protein melting temperature", "observed": 44}
{"compound": "OC[C@H]1O[C@@H](n2cnc3c(O)nc(O)nc32)[C@H](O)[C@@H]1O [Xanthosine]", "experimental-target": "McpC ligand-binding domain (Salmonella Typhimurium SL1344)", "property": "protein melting temperature", "observed": 44.3}
{"compound": "C[C@H](N)C(=O)O [L-Alanine]", "experimental-target": "McpC ligand-binding domain (Salmonella Typhimurium SL1344)", "property": "protein melting temperature", "observed": 45.6}
{"compound": "N[C@@H](Cc1c[nH]cn1)C(=O)O [L-Histidine]", "experimental-target": "McpC ligand-binding domain (Salmonella Typhimurium SL1344)", "property": "protein melting temperature", "observed": 44.8}
{"compound": "Nc1ncnc2c1ncn2[C@@H]1O[C@H](CO)[C@@H](O)[C@H]1O [Adenosine]", "experimental-target": "McpC ligand-binding domain (Salmonella Typhimurium SL1344)", "property": "protein melting temperature", "observed": 45.4}
{"compound": "N[C@@H](Cc1ccc(O)cc1)C(=O)O [L-Tyrosine]", "experimental-target": "McpC ligand-binding domain (Salmonella Typhimurium SL1344)", "property": "protein melting temperature", "observed": 44.8}

----------
Tested on: McpC ligand-binding domain (Salmonella Typhimurium SL1344)
Assay: protein melting temperature (Tm) in presence of compound (degrees C); higher = more thermal stabilisation (possible ligand binding)
Details: Biolog plate: PM01; compound stock concentration: 10-20 mM, 2 uL in 10 uL reaction

{"molecule": "C[C@H](N)C(=O)O [L-Alanine]", "experimental-target": "McpC ligand-binding domain (Salmonella Typhimurium SL1344)", "protein melting temperature": 44.8}
{"molecule": "CO[C@@H]1O[C@H](CO)[C@@H](O)[C@H](O)[C@H]1O [b-Methyl-D-Glucoside]", "experimental-target": "McpC ligand-binding domain (Salmonella Typhimurium SL1344)", "protein melting temperature": 44.7}
{"molecule": "O=C(O)CC(Br)C(=O)O (configuration not stated) [Bromosuccinic acid]", "experimental-target": "McpC ligand-binding domain (Salmonella Typhimurium SL1344)", "protein melting temperature": 44.8}
{"molecule": "NC(=O)CC[C@H](N)C(=O)O [L-Glutamine]", "experimental-target": "McpC ligand-binding domain (Salmonella Typhimurium SL1344)", "protein melting temperature": 44}
{"molecule": "CC(O)CO (configuration not stated) [1,2-Propanediol]", "experimental-target": "McpC ligand-binding domain (Salmonella Typhimurium SL1344)", "protein melting temperature": 44.8}
{"molecule": "O[C@@H]1[C@@H](O)[C@@H](O)CO[C@H]1O [L-Arabinose]", "experimental-target": "McpC ligand-binding domain (Salmonella Typhimurium SL1344)", "protein melting temperature": 44.5}
{"molecule": "O=P(O)(O)OC[C@H](O)CO (racemic) [DL-a-Glycerol Phosphate]", "experimental-target": "McpC ligand-binding domain (Salmonella Typhimurium SL1344)", "protein melting temperature": 44.6}
{"molecule": "CO[C@H]1O[C@H](CO)[C@H](O)[C@H](O)[C@H]1O [a-Methyl-D-Galactoside]", "experimental-target": "McpC ligand-binding domain (Salmonella Typhimurium SL1344)", "protein melting temperature": 44.9}
{"molecule": "O[C@@H]1[C@H](O)[C@H](O)CO[C@H]1O [D-Ribose]", "experimental-target": "McpC ligand-binding domain (Salmonella Typhimurium SL1344)", "protein melting temperature": 44.2}
{"molecule": "O=C(O)[C@@H](O)[C@@H](O)[C@H](O)[C@@H](O)C(=O)O [D-Saccharic acid]", "experimental-target": "McpC ligand-binding domain (Salmonella Typhimurium SL1344)", "protein melting temperature": 44.4}
{"molecule": "C[C@H](O)[C@@H](N)C(=O)O [D-Threonine]", "experimental-target": "McpC ligand-binding domain (Salmonella Typhimurium SL1344)", "protein melting temperature": 44}
{"molecule": "CC(=O)CC(=O)O [Acetoacetic acid]", "experimental-target": "McpC ligand-binding domain (Salmonella Typhimurium SL1344)", "protein melting temperature": 44.6}
{"molecule": "Cc1cn([C@H]2C[C@H](O)[C@@H](CO)O2)c(=O)[nH]c1=O [Thymidine]", "experimental-target": "McpC ligand-binding domain (Salmonella Typhimurium SL1344)", "protein melting temperature": 44.6}
{"molecule": "N[C@H](CC(=O)O)C(=O)O [D-Aspartic acid]", "experimental-target": "McpC ligand-binding domain (Salmonella Typhimurium SL1344)", "protein melting temperature": 44.2}
{"molecule": "N[C@@H](CC(=O)O)C(=O)O [L-Aspartic acid]", "experimental-target": "McpC ligand-binding domain (Salmonella Typhimurium SL1344)", "protein melting temperature": 44.5}
{"molecule": "OC[C@H]1OC(O)[C@H](O)[C@@H](O)[C@H]1O (stereo partly drawn) [D-Galactose]", "experimental-target": "McpC ligand-binding domain (Salmonella Typhimurium SL1344)", "protein melting temperature": 44.8}
{"molecule": "NCC(=O)N1CCC[C@H]1C(=O)O [Gly-Pro]", "experimental-target": "McpC ligand-binding domain (Salmonella Typhimurium SL1344)", "protein melting temperature": 44.2}
{"molecule": "Nc1ncnc2c1ncn2[C@@H]1O[C@H](CO)[C@@H](O)[C@H]1O [Adenosine]", "experimental-target": "McpC ligand-binding domain (Salmonella Typhimurium SL1344)", "protein melting temperature": 43.8}
{"molecule": "C[C@H](N)C(=O)NCC(=O)O [Ala-Gly]", "experimental-target": "McpC ligand-binding domain (Salmonella Typhimurium SL1344)", "protein melting temperature": 44.9}
{"molecule": "O=C(O)CCC(=O)O [Succinic acid]", "experimental-target": "McpC ligand-binding domain (Salmonella Typhimurium SL1344)", "protein melting temperature": 44.5}
{"molecule": "COC(=O)C(C)=O [Methylpyruvate]", "experimental-target": "McpC ligand-binding domain (Salmonella Typhimurium SL1344)", "protein melting temperature": 44.9}
{"molecule": "O=C(O)[C@@H](O)[C@H](O)[C@H](O)[C@@H](O)C(=O)O [Mucic acid]", "experimental-target": "McpC ligand-binding domain (Salmonella Typhimurium SL1344)", "protein melting temperature": 43.7}

meta.source: the supplement of paper PMC7806825
